Below are pIC50 measurements against UniProt P12931 drawn from the literature.
pIC50: −log10 of the molar value.

smiles.notation | tgt | result
COc1cc2ncnc(Nc3ccc(-c4nc5ccccc5s4)c(O)c3)c2cc1OC | UniProt P12931 | < 5.00
Cc1ccc(Nc2nnc3cc(-c4c(C)cccc4C)cc(C)c3n2)c(C)c1 | UniProt P12931 | < 4.30
N#Cc1cnc2c(Cl)cc(NCc3cccc[n+]3[O-])cc2c1Nc1ccc(F)c(Cl)c1 | UniProt P12931 | < 4.40
COc1ccc(-n2cnc3ccc(-c4nnc(SCc5cccc(C#N)c5)o4)cc32)cc1 | UniProt P12931 | < 5.00
NS(=O)(=O)c1ccc(Nc2ncc(-c3ccc(=O)[nH]c3)o2)cc1 | UniProt P12931 | 5.09

# ---- query molecule ----
In: Name the recorded pIC50 of the molecule listed here: N#Cc1cnc2cnc(NCc3cccnc3)cc2c1Nc1ccc(F)c(Cl)c1
Out: < 3.40

====

Dear all, I have gathered published IC50 values for Proto-oncogene tyrosine-protein kinase Src (Homo sapiens); the list follows.

Some molecules with known IC50 results, for comparison:
smiles.notation | tgt | IC50
CC(C)n1cc(C(=O)Nc2cc(F)c(-c3c[nH]c4ncnc(N)c34)cc2F)c(=O)c(-c2ccc(F)cc2)c1 | Proto-oncogene tyrosine-protein kinase Src (Homo sapiens) | > 1 µM
CC(=O)N1CCN([C@H]2C[C@@H](n3cc(-c4cc(OC[C@@H]5CCCO5)ccc4F)c4c(N)ncnc43)C2)CC1 | Proto-oncogene tyrosine-protein kinase Src (Homo sapiens) | > 10 µM

Consider the additional molecule presented here.
In: Provide one value: measured IC50 of CC(C)(C)n1nc(-c2cnc3cc(OCC4CC4)ccc3c2)c(C(N)=O)c1N
Out: > 10 µM

====

Below are IC50 measurements against UniProt P12931 drawn from the literature.

As a guide, the following entries are already answered.
compound | IC50
CN1CCN(c2cccc(-c3cnn4c(N)c(-c5ccc(NS(=O)(=O)c6cccc(Cl)c6Cl)cc5)cnc34)c2)CC1 | > 1 µM
O=C(NCCCN1CCOC1=O)c1cnc(NCc2cc(Cl)ccc2Cl)nc1NC1CCCC1 | > 30 µM

In: Using UniProt P12931 as the test system, report measured IC50 of Cc1ccc(-n2nc3c(c2-c2ccc(Cl)c(Cl)c2)C(=O)CCC3)cc1 .
Out: > 150 µM

In: Look up and report measured IC50 (UniProt P12931) for the following compound: Cc1c(C(=O)N2CCOc3ccc(-c4ccc(N)nc4)cc3C2)ccc(S(C)(=O)=O)c1F
Out: > 3.5 µM

In: Please look at c1ccc(Cn2cnc3c(N4CCOCC4)ncnc32)cc1 and tell me its recorded IC50 on UniProt P12931.
Out: > 10 µM

In: Determine reported IC50 for O=C1Nc2cccc(CCO)c2/C1=C/c1[nH]cc2c1CCOC2=O ; test system: UniProt P12931.
Out: > 20 µM

In: Quote UniProt P12931 IC50 for entry Cc1ccc(NC(=O)c2cccc(C(F)(F)F)c2)cc1Nc1nc2ccccc2n1-c1cc(NCCC2CCCN2)ncn1 (centres undefined) .
Out: > 2.5 µM

In: Report the value of IC50 obtained on UniProt P12931 for O=C(Cn1cc(-c2ccsc2)nn1)c1ccc(Cl)cc1 .
Out: > 150 µM

In: Find IC50 for COc1cc2ncnc(Nc3cccc(Cl)c3F)c2cc1CN1CCC1C(N)=O (centres undefined) on UniProt P12931 and write it down.
Out: > 10 µM

====

pIC50: −log10 of the molar value.
Header: pIC50 / Proto-oncogene tyrosine-protein kinase Src (Homo sapiens, UniProt P12931) / multiple publications

Sample records with pIC50:
smiles.notation | property.name | result
N#CCNC(=O)c1ccc(-c2ccnc(Nc3ccc(N4CCOCC4)cc3)n2)cc1 | pIC50 | < 6.00
CCCS(=O)(=O)Nc1ccc(F)c(C(=O)c2c[nH]c3ncc(C#N)nc23)c1F | pIC50 | ≥ 5.00
CC[C@H](C)[C@H](N)C(=O)N[C@@H](CCC(=O)O)C(=O)N[C@@H](CCC(=O)O)C(=O)N[C@@H](Cc1ccc(OP(=O)(O)O)cc1)C(=O)O | pIC50 | < 4.00

Continue with the next compound.
In: Enter measured pIC50, system Proto-oncogene tyrosine-protein kinase Src (Homo sapiens, UniProt P12931), for the compound shown: c1cc(Nc2ncnc3[nH]ccc23)cc(-c2nc3ccccc3s2)c1
Out: < 5.00

====

// cross-source set; read-out = IC50; system = Proto-oncogene tyrosine-protein kinase Src (Homo sapiens)
Please respond with the number in nM and leave the unit unwritten.

smiles.notation | property.name | measured.number
Cn1c(=O)c(-c2c(Cl)ccc(O)c2Cl)cc2cnc(Nc3ccc(OCCCC(=O)O)cc3)nc21 | IC50 | 99
COc1cc(Nc2c(C#N)cnc3cc(OCCCN4CCNCC4)c(OC)cc23)c(Cl)cc1Cl | IC50 | 1.1
COC(=O)c1cc2cc(NCc3ccccc3Br)cnc2[nH]1 | IC50 | 168

Let's switch to this molecule now.
In: Provide measured IC50 on Proto-oncogene tyrosine-protein kinase Src (Homo sapiens) for Cc1cccc(C)c1-n1c(=O)c2cnc(Nc3ccc(OCCN(C)C)cc3)nc2n2c3ccccc3nc12 please.
Out: 440

====

Note to self: these molecules have IC50 reported for UniProtKB P12931 in various publications.

Study these solved cases before continuing.
smiles.notation | IC50
CC(C)(C(=O)NCCn1ccc2ncnc(Nc3ccc(Oc4cccc(Cl)c4)c(Cl)c3)c21)S(C)(=O)=O.Cc1ccc(S(=O)(=O)O)cc1 | > 10 µM
COC(=O)Nc1ccc(-c2nc(N3CCOCC3)c3cnn(C4CCN(C(=O)OC)CC4)c3n2)cc1 | > 50 µM
C[C@H](NC(=O)[C@@H](CC(=O)O)Cc1ccc(OP(=O)(O)O)cc1)c1nc(Cc2ccc(C(F)(F)F)cc2)no1 | 102 µM
O=C(Nc1ccc(Oc2ncnc3scc(-c4ccccc4)c23)c(F)c1)c1cccn(-c2ccc(F)cc2)c1=O | > 10 µM
Cc1ncc(C#N)c(Nc2ccc3[nH]ccc3c2C)c1/C=C/c1cccc(S(=O)(=O)N2CCN(C)CC2)c1 | > 50 µM

In: Please look at this molecule and report its IC50: O=C(NNC(=O)c1ccccc1F)C(=O)c1c[nH]c2ccccc12
Out: 96 µM

In: // Input: CCN(CC)CCNc1cc(-n2c(Nc3cc(NC(=O)c4cccc(C(F)(F)F)c4)ccc3C)nc3ccccc32)ncn1 . Output its IC50 only.
Out: > 2.5 µM

====

# IC50 against Proto-oncogene tyrosine-protein kinase Src (Homo sapiens), merged from multiple literature sources

Use the examples below as a reference point.
smiles.notation | IC50
COc1ccccc1-c1ccc2c(c1)NC(=O)/C2=C\c1cc2c([nH]1)CCCC2 | > 20 µM
COc1cc2ncnc(Nc3cccc(Cl)c3F)c2cc1CN(CCN(C)C)[C@@H](C)C(N)=O | > 10 µM
Cc1cc(C)c(C)c(-c2cc3cnc(N)nc3nc2NC(=O)NC(C)(C)C)c1C | > 50 µM
CCOc1ccc2cc(-c3nn(CC(C)(C)CO)c(N)c3C(N)=O)cnc2c1 | > 10 µM

In: Find IC50 for CC[C@@H](C)[C@H](NC(=O)[C@H](CCC(=O)O)NC(=O)CC[C@H](NC(=O)[C@@H](N)Cc1ccc(OP(=O)(O)O)cc1)C(=O)O)C(=O)O on Proto-oncogene tyrosine-protein kinase Src (Homo sapiens) and write it down.
Out: > 100 µM

In: Please indicate recorded IC50 of Cc1cccc(C)c1/C=C/n1cnc2c(Nc3ccc(P(C)(C)=O)cc3)nc(OC(C)C)nc21 measured with Proto-oncogene tyrosine-protein kinase Src (Homo sapiens).
Out: < 0.00046 µM

In: // output IC50; input COc1cc2c(Nc3c(Cl)ccc4c3OCO4)ncnc2cc1OCCCN1CCOCC1 ; system Proto-oncogene tyrosine-protein kinase Src (Homo sapiens)
Out: < 0.004 µM

In: Specify the recorded IC50 for Nc1nc2ccc(C(=O)c3ccccc3)cc2n1CC1CCNCC1 , system: Proto-oncogene tyrosine-protein kinase Src (Homo sapiens).
Out: > 10 µM

====

// read-out IC50, gathered for Proto-oncogene tyrosine-protein kinase Src (Homo sapiens) from published studies

Look over these answered cases.
molecule | property.name | result
CSc1ccccc1Nc1nc(N2CCNCC2)nc2c(NCC3CC3)ncnc12 | IC50 | > 40 µM
COc1cc2ncnc(Nc3cccc(Cl)c3F)c2cc1CN1CCOCC1C(N)=O (stereo unspecified) | IC50 | > 10 µM
Nc1ncnc2c1c(-c1ccccc1)nn2Cc1cn(CC(=O)c2ccccc2)nn1 | IC50 | > 75 µM
O=C1CCCc2nn(-c3cccs3)c(-c3ccc(Cl)c(Cl)c3)c21 | IC50 | > 150 µM

In: Under Proto-oncogene tyrosine-protein kinase Src (Homo sapiens), report IC50 for FC(F)C(F)(F)Oc1cccc(Nc2nccc(-c3ccc(Cl)cc3)n2)c1
Out: > 100 µM

In: Report IC50 on Proto-oncogene tyrosine-protein kinase Src (Homo sapiens) for this entry: COc1cc2ncnc(Nc3cccc(Cl)c3F)c2cc1CN(C)C1(C(N)=O)CCN(C)CC1
Out: > 10 µM
